# Experimental Protocol: Pharmacokinetics (biodistribution 1-24 h) in non-tumor bearing mice
# Format: in vivo
# Test Context: female, BALB/c, mouse, lung, 200 umol, total radioactivity; 4 hours after injection, ^61Cu; read-out: Biodistribution Lung
Value Kind: tissue uptake at 4 h (%ID/g)

Molecule	Value Kind	Quantitative Readout
C[C@@H](O)[C@@H]1NC(=O)[C@H](CCCCN)NC(=O)[C@@H](Cc2c[nH]c3ccccc23)NC(=O)[C@H](Cc2ccc(O)cc2)NC(=O)[C@@H](NC(=O)[C@@H](Cc2ccccc2)NC(=O)CCC(C(=O)O)N2CCN(CC(=O)O)CCN(CC(=O)O)CC2)CSSC[C@@H](C(=O)N[C@H](CO)[C@@H](C)O)NC1=O (single isomer, unassigned) [[^61/^64Cu]Cu-NODAGA-TOC, metal not drawn]	tissue uptake at 4 h	0.5

---

# Test system: HT-1080.hFAP and HT-1080.wt xenografts
# Experimental Protocol: Quantitative biodistribution in HT-1080.hFAP and HT-1080.wt xenografted mice
# Assay type: in vivo
# Test Context: 1 h p.i., HT-1080.hFAP and HT-1080.wt xenografts
Value Kind: Biodistribution Liver (% IA/g)

Compound	Result Units	Quantitative Readout
CN(C(=O)CCC(=O)NCCNC(=O)CC[C@H](C(=O)O)N1CCN2CCN(CC1)CC(=O)[O][61Cu][O]C(=O)C2)c1ccc2nccc(C(=O)NCC(=O)N3CC(F)(F)C[C@H]3C#N)c2c1 [[^61Cu]Cu-NODAGA-F2]	% IA/g	0.6
N#C[C@@H]1CC(F)(F)CN1C(=O)CNC(=O)c1ccnc2ccc(NC(=O)CCC(=O)NCCNC(=O)CC[C@H](C(=O)O)N3CCN4CCN(CC3)CC(=O)[O][61Cu][O]C(=O)C4)cc12 [[^61Cu]Cu-NODAGA-F1]	% IA/g	1.5
CN(C(=O)CCC(=O)N1CCN(C(=O)CC[C@H](C(=O)O)N2CCN3CCN(CC2)CC(=O)[O][61Cu][O]C(=O)C3)CC1)c1ccc2nccc(C(=O)NCC(=O)N3CC(F)(F)C[C@H]3C#N)c2c1 [[^61Cu]Cu-NODAGA-F4]	% IA/g	0.6
N#C[C@@H]1CC(F)(F)CN1C(=O)CNC(=O)c1ccnc2ccc(NC(=O)CCC(=O)N3CCN(C(=O)CC[C@H](C(=O)O)N4CCN5CCN(CC4)CC(=O)[O][61Cu][O]C(=O)C5)CC3)cc12 [[^61Cu]Cu-NODAGA-F3]	% IA/g	0.9
CN(CCCN1CCN(C(=O)CCC(C(=O)O)N2CCN3CCN(CC2)CC(=O)[O][61Cu][O]C(=O)C3)CC1)c1ccc2nccc(C(=O)NCC(=O)N3CC(F)(F)C[C@H]3C#N)c2c1 (some centres unmarked) [[^61Cu]Cu-NODAGA-FAPI-46]	% IA/g	0.9

---

Below is a list of entries, each paired with its recorded Biodistribution Muscle value.
# Test system: HT-1080.hFAP and HT-1080.wt xenografts
# Experimental Protocol: Quantitative biodistribution in HT-1080.hFAP and HT-1080.wt xenografted mice
# Assay type: in vivo
# Test Context: 4 h p.i., HT-1080.hFAP and HT-1080.wt xenografts

Compound	Biodistribution Muscle [% IA/g]
CN(CCCN1CCN(C(=O)CCC(C(=O)O)N2CCN3CCN(CC2)CC(=O)[O][61Cu][O]C(=O)C3)CC1)c1ccc2nccc(C(=O)NCC(=O)N3CC(F)(F)C[C@H]3C#N)c2c1 (some centres unmarked) [[^61Cu]Cu-NODAGA-FAPI-46]	1.4
N#C[C@@H]1CC(F)(F)CN1C(=O)CNC(=O)c1ccnc2ccc(NC(=O)CCC(=O)N3CCN(C(=O)CC[C@H](C(=O)O)N4CCN5CCN(CC4)CC(=O)[O][61Cu][O]C(=O)C5)CC3)cc12 [[^61Cu]Cu-NODAGA-F3]	1.1
N#C[C@@H]1CC(F)(F)CN1C(=O)CNC(=O)c1ccnc2ccc(NC(=O)CCC(=O)NCCNC(=O)CC[C@H](C(=O)O)N3CCN4CCN(CC3)CC(=O)[O][61Cu][O]C(=O)C4)cc12 [[^61Cu]Cu-NODAGA-F1]	1.3
CN(C(=O)CCC(=O)N1CCN(C(=O)CC[C@H](C(=O)O)N2CCN3CCN(CC2)CC(=O)[O][61Cu][O]C(=O)C3)CC1)c1ccc2nccc(C(=O)NCC(=O)N3CC(F)(F)C[C@H]3C#N)c2c1 [[^61Cu]Cu-NODAGA-F4]	0.4
CN(C(=O)CCC(=O)NCCNC(=O)CC[C@H](C(=O)O)N1CCN2CCN(CC1)CC(=O)[O][61Cu][O]C(=O)C2)c1ccc2nccc(C(=O)NCC(=O)N3CC(F)(F)C[C@H]3C#N)c2c1 [[^61Cu]Cu-NODAGA-F2]	0.4

---

# Test system: HT-1080.hFAP and HT-1080.wt xenografts
# Experimental Protocol: Quantitative biodistribution in HT-1080.hFAP and HT-1080.wt xenografted mice
# Format: in vivo
# Test Context: 1 h p.i., HT-1080.hFAP and HT-1080.wt xenografts
Given measured Biodistribution Adrenal, output YES if it is greater than or equal to 2 % IA/g and NO if not.

Compound	Class
N#C[C@@H]1CC(F)(F)CN1C(=O)CNC(=O)c1ccnc2ccc(NC(=O)CCC(=O)NCCNC(=O)CC[C@H](C(=O)O)N3CCN4CCN(CC3)CC(=O)[O][61Cu][O]C(=O)C4)cc12 [[^61Cu]Cu-NODAGA-F1]	YES
CN(CCCN1CCN(C(=O)CCC(C(=O)O)N2CCN3CCN(CC2)CC(=O)[O][61Cu][O]C(=O)C3)CC1)c1ccc2nccc(C(=O)NCC(=O)N3CC(F)(F)C[C@H]3C#N)c2c1 (some centres unmarked) [[^61Cu]Cu-NODAGA-FAPI-46]	YES
CN(C(=O)CCC(=O)N1CCN(C(=O)CC[C@H](C(=O)O)N2CCN3CCN(CC2)CC(=O)[O][61Cu][O]C(=O)C3)CC1)c1ccc2nccc(C(=O)NCC(=O)N3CC(F)(F)C[C@H]3C#N)c2c1 [[^61Cu]Cu-NODAGA-F4]	NO
N#C[C@@H]1CC(F)(F)CN1C(=O)CNC(=O)c1ccnc2ccc(NC(=O)CCC(=O)N3CCN(C(=O)CC[C@H](C(=O)O)N4CCN5CCN(CC4)CC(=O)[O][61Cu][O]C(=O)C5)CC3)cc12 [[^61Cu]Cu-NODAGA-F3]	YES
CN(C(=O)CCC(=O)NCCNC(=O)CC[C@H](C(=O)O)N1CCN2CCN(CC1)CC(=O)[O][61Cu][O]C(=O)C2)c1ccc2nccc(C(=O)NCC(=O)N3CC(F)(F)C[C@H]3C#N)c2c1 [[^61Cu]Cu-NODAGA-F2]	NO

---

# Experimental Protocol: Pharmacokinetics (biodistribution 1-24 h) in non-tumor bearing mice
# Assay type: in vivo
# Test Context: female, BALB/c, mouse, pituitary, 200 umol, total radioactivity; 4 hours after injection, ^61Cu; read-out: Biodistribution Pituitary

Molecule	tissue uptake at 4 h
C[C@@H](O)[C@@H]1NC(=O)[C@H](CCCCN)NC(=O)[C@@H](Cc2c[nH]c3ccccc23)NC(=O)[C@H](Cc2ccc(O)cc2)NC(=O)[C@@H](NC(=O)[C@@H](Cc2ccccc2)NC(=O)CCC(C(=O)O)N2CCN(CC(=O)O)CCN(CC(=O)O)CC2)CSSC[C@@H](C(=O)N[C@H](CO)[C@@H](C)O)NC1=O (single isomer, unassigned) [[^61/^64Cu]Cu-NODAGA-TOC, metal not drawn]	2.71 %ID/g

---

# Experimental Protocol: Pharmacokinetics (biodistribution 1-24 h) in non-tumor bearing mice
# Type: in vivo
# Test Context: female, BALB/c, mouse, lung, 200 umol, total radioactivity; 1 hour after injection, ^61Cu; read-out: Biodistribution Lung
Value Kind: tissue uptake at 1 h (%ID/g)

Compound	Value Kind	Quantitative Readout
C[C@@H](O)[C@@H]1NC(=O)[C@H](CCCCN)NC(=O)[C@@H](Cc2c[nH]c3ccccc23)NC(=O)[C@H](Cc2ccc(O)cc2)NC(=O)[C@@H](NC(=O)[C@@H](Cc2ccccc2)NC(=O)CCC(C(=O)O)N2CCN(CC(=O)O)CCN(CC(=O)O)CC2)CSSC[C@@H](C(=O)N[C@H](CO)[C@@H](C)O)NC1=O (single isomer, unassigned) [[^61/^64Cu]Cu-NODAGA-TOC, metal not drawn]	tissue uptake at 1 h	1.07

---

# Test system: HT-1080.hFAP and HT-1080.wt xenografts
# Experimental Protocol: Quantitative biodistribution in HT-1080.hFAP and HT-1080.wt xenografted mice
# Type: in vivo
# Test Context: 1 hour p.i.

Molecule	Result Units	Biodistribution Spleen
CN(C(=O)CCC(=O)N1CCN(C(=O)CC[C@H](C(=O)O)N2CCN3CCN(CC2)CC(=O)[O][61Cu][O]C(=O)C3)CC1)c1ccc2nccc(C(=O)NCC(=O)N3CC(F)(F)C[C@H]3C#N)c2c1 [[^61Cu]Cu-NODAGA-F4]	% I.A./g	0.4
N#C[C@@H]1CC(F)(F)CN1C(=O)CNC(=O)c1ccnc2ccc(NC(=O)CCC(=O)NCCNC(=O)CC[C@H](C(=O)O)N3CCN4CCN(CC3)CC(=O)[O][61Cu][O]C(=O)C4)cc12 [[^61Cu]Cu-NODAGA-F1]	% I.A./g	0.8
N#C[C@@H]1CC(F)(F)CN1C(=O)CNC(=O)c1ccnc2ccc(NC(=O)CCC(=O)N3CCN(C(=O)CC[C@H](C(=O)O)N4CCN5CCN(CC4)CC(=O)[O][61Cu][O]C(=O)C5)CC3)cc12 [[^61Cu]Cu-NODAGA-F3]	% I.A./g	0.5
CN(C(=O)CCC(=O)NCCNC(=O)CC[C@H](C(=O)O)N1CCN2CCN(CC1)CC(=O)[O][61Cu][O]C(=O)C2)c1ccc2nccc(C(=O)NCC(=O)N3CC(F)(F)C[C@H]3C#N)c2c1 [[^61Cu]Cu-NODAGA-F2]	% I.A./g	0.4
